B1: LARP4 (parent)
chain: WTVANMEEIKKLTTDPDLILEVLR

Variants of: B1
Test: protein stability index of a GFP-peptide fusion (GPS, HEK-293T) (PSI 1-6); higher = more stable;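 further: lentivirally expressed fusions sorted by FACS into six bins by GFP to DsRed ratio, PSI derived from sequencing read proportions per bin multiplied by bin number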
Settings: c terminus: a fixed tail appended
Exercise: state measured protein stability index for each of the variants provided.

Mutant	protein stability index
I9A	2.38
E7K	1.88
I19F	2.18
V3H	2.5
L18Y	3.46
L20W	2.01
L20A	3.37
W1M	2.88

Required: protein stability index, one value per variant below.
1. L20M
2. L23S
3. L12D
4. L23W
5. L12G
6. T14M

-- reply
1: 2.02; 2: 3.27; 3: 3.37; 4: 2.96; 5: 2.6; 6: 2.54

Required: protein stability index, one value per variant below.
1. E8S
2. D17P
3. D15N
4. E7A
5. N5F
6. V22W
7. T14Y
8. M6L

-- reply
1: 1.58; 2: 2.2; 3: 2.14; 4: 1.9; 5: 1.98; 6: 2.33; 7: 1.65; 8: 2.13

Required: protein stability index, one value per variant below.
1. R24Q
2. D17F
3. W1P
4. I19A
5. L23V
6. L18W
7. P16C
8. V22T

-- reply
2.38
1.77
2.71
2.49
2.85
2.54
1.75
2.25

Required: protein stability index, one value per variant below.
1. K11E
2. E21K

-- reply
[3.99, 2.36]
